Target: DNA dC->dU-editing enzyme APOBEC-3A (Homo sapiens)
Sequence (P31941 whole entry): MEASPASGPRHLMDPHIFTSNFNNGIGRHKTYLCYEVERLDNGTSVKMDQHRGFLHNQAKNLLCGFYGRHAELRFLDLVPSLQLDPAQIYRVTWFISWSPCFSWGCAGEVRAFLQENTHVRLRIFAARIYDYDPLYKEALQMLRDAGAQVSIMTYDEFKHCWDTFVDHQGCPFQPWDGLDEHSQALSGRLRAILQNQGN
Experiment: Dose Response confirmation of small molecule APOBEC3A DNA Deaminase Inhibitors via a fluorescence-based single-stranded DNA deaminase assay. [Related pubchem assays (depositor defined):AID493011, AID493024]
Assay type: functional
Calls of active or inactive are those of the source.
Log the outcome using a class from active, inactive

Worked examples follow.
> print(dat)
                                   molecule     label
1  C=CCn1c(C)c(/C=C/c2cc[n+](C)cc2)c2ccccc21  inactive
2          C=CC[n+]1c2n(c3ccccc3c1=O)CCCCC2    active
3   O=C(O)c1cc2nc(-c3cccs3)cc(C(F)(F)F)n2n1    active
4  CC[n+]1c(/C=C2/C=CN(CCCS(=O)(=O)[O-])c3ccccc32)sc2ccccc21    active
5  O=C(O)c1cccc(-n2cccc2/C=C2\NC(=O)N(Cc3ccc(F)cc3)C2=O)c1    active

How was CC[n+]1c(C)n(CC(O)COCC2CC=CCC2)c2ccccc21 (stereo unspecified) classified in this test?
active

* * *

Molecular target: Orexin/Hypocretin receptor type 1 (Homo sapiens, UniProt O43613)
Sequence (O43613 whole entry): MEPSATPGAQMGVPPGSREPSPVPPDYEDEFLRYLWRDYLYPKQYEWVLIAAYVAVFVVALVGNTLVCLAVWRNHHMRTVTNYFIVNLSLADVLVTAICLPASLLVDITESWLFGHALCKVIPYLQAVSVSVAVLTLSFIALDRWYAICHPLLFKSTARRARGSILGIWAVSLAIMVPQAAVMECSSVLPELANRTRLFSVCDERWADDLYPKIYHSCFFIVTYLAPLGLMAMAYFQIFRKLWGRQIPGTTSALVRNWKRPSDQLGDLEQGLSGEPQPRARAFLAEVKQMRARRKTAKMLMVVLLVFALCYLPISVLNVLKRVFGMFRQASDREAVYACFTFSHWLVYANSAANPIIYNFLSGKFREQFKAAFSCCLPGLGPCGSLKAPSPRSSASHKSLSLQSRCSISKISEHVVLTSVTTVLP
Experiment: Fluorescence-based cell-based high throughput dose response assay for antagonists of the orexin 1 receptor (OX1R; HCRTR1). [Related pubchem assays (depositor defined):AID434989, AID435008, AID463079, AID485270, AID492963, AID492964, AID492965, AID493232, AID504717, AID504718]
Assay type: functional
The source made the active and inactive calls.
The reply should be one of these categories: class 1 (active), class 0 (inactive)

Examples from the recorded data:
> print(dat)
                                chem.smiles    label
1          COc1cc(OC)c(-c2nc3ccccc3s2)cc1OC  class 1
2  O=C(NCCN1C(=O)S/C(=C\c2ccccc2)C1=O)c1cc(S(=O)(=O)N2CCOCC2)c(Cl)cc1Cl  class 0
3           Cc1ccc(NC(=O)c2ccc3ccccc3n2)nc1  class 0

Continue with the next compound.
Called result for `COc1ccc(-c2nn3c(-c4ccccc4)nnc3s2)cc1`
class 1

* * *

I'd appreciate it if you could supply IC50 values for the items below.
Molecular target: Sentrin-specific protease 7 (Homo sapiens, UniProt Q9BQF6);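 also: Luminescence-based dose-response confirmation of ultra-high-throughput screening hits, measuring inhibition of SENP7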
Sequence (Q9BQF6 whole entry): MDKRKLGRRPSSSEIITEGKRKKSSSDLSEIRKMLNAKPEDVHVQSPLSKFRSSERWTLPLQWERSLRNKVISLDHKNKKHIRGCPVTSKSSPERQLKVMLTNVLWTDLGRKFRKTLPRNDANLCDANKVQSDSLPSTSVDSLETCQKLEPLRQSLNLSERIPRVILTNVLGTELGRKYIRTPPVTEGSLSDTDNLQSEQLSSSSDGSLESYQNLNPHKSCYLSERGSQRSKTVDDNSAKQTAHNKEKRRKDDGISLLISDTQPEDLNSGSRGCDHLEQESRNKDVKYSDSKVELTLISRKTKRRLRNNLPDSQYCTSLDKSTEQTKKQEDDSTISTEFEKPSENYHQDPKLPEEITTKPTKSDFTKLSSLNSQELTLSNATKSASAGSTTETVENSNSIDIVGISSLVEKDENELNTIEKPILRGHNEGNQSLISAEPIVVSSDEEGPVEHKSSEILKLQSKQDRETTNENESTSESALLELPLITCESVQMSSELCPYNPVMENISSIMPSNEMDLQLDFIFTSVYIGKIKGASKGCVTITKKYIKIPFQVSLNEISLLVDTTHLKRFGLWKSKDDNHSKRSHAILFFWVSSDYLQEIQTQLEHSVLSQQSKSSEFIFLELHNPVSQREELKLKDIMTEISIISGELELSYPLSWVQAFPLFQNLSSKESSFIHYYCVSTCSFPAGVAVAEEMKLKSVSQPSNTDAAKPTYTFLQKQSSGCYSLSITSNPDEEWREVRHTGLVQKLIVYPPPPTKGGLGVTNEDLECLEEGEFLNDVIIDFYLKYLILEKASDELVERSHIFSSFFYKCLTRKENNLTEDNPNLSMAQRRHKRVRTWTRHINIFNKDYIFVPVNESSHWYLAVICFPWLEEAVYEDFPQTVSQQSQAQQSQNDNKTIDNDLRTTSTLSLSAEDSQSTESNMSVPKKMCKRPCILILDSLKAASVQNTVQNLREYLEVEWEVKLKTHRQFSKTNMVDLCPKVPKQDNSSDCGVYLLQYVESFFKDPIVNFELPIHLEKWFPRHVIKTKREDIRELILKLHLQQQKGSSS
Assay type: functional
Active and inactive are the calls of the source.

Solved cases below.
> print(dat)
                                chem.smiles            result
1         Oc1ccccc1/C=C/c1noc(-c2ccccc2O)n1  3.46 µM (active)
2         O=C(Nc1nccs1)c1ccc(-c2ccccc2Cl)o1  4.57 µM (active)
3             Cc1cccc(N=Nc2ccc(N(C)C)cc2)c1  2.52 µM (active)
4  Cc1cccc(-c2cc3nc4c(c(N5CCOCC5)n3n2)CCCC4)c1  12.9 µM (active)
5   CCOC(=O)c1c(C)[nH]c(N=Nc2cccc(OC)c2)c1C  3.75 µM (active)

For each of the compounds below, state IC50.
1. O=C(CCCc1ccccc1)c1ccccc1
2. COc1ccccc1N1C(=O)Cc2ccccc2C1=O

1: 7.31 µM (active); 2: 31.2 µM (active)
